Biological target: TCPTP (Homo sapiens, UniProt P17706)
Sequence (P17706 1-317): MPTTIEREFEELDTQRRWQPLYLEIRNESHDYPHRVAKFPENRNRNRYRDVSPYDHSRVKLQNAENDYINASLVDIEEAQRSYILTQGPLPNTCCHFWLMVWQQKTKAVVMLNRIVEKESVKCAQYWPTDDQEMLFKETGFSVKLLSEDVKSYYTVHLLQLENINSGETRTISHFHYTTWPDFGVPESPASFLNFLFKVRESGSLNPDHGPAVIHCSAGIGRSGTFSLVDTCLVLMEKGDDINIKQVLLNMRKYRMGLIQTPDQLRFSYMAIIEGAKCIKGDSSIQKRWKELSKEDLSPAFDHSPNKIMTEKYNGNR
Assay: pNPP enzyme kinetics, inhibition by amorphadiene
Type: biochemical
Details: read-out: IC50 for TCPTP; wild type, pNPP substrate, this study
measured.metric: IC50 (µM)
Unit µM implied. Number only.

Challenge: Name the recorded IC50 for C=C(C)[C@@H]1CC[C@@H](C)[C@@H]2CCC(C)=C[C@@H]21 [AD, amorphadiene] .
Response given: 27
